- System: Alopecurus myosuroides (ALOMY)
- Procedure Details: Post-emergence herbicidal action, greenhouse pot test (also comparative test C)
- Type: in vivo
- Run Parameters: 1.25 g/ha, rated visually after about 3 weeks vs untreated controls, 100% = plants have died
Experimental Readout: Post-emergence action at 1.25 g/ha against ALOMY in % (%)

>>> assay_result("Cn1c(C(F)(F)F)cc(=O)n(-c2cc(Oc3ccccc3OCC(=O)OCc3ccccn3)c(Cl)cc2F)c1=O")
90
>>> assay_result("Cn1c(C(F)(F)F)cc(=O)n(-c2cc(Oc3ccccc3OCC(=O)OCc3cccnn3)c(C#N)cc2F)c1=O")
80
>>> assay_result("CCOCCOC(=O)COc1ccccc1Oc1cc(-n2c(=O)cc(C(F)(F)F)n(C)c2=O)c(F)cc1Br")
80
>>> assay_result("Cn1c(C(F)(F)F)cc(=O)n(-c2cc(Oc3ccccc3OCC(=O)OCCOC(F)(F)F)c(Cl)cc2F)c1=O")
100
>>> assay_result("COCCOCCOC(=O)COc1ccccc1Oc1cc(-n2c(=O)cc(C(F)(F)F)n(C)c2=O)c(F)cc1Cl")
80
>>> assay_result("Cn1c(C(F)(F)F)cc(=O)n(-c2cc(Oc3ccccc3OCC(=O)OCc3cccnn3)c(Br)cc2F)c1=O")
80
